# system.under.test: UniProtKB P00533
# experimental.protocol: Inhibition of recombinant human wild-type His-tagged EGFR expressed in mammalian expression system using Tyr 4 peptide as substrate after 1 hr in presence of ATP by Z-LYTE kinase assay
parameter: IC50 (nM)
Provide only the numeric value, understood in nM.

**Query** Need IC50 of `C=CC(=O)Nc1cc(Nc2ncc(Cl)c(Nc3ccccc3S(=O)(=O)C(C)C)n2)c(OC)cc1N1CCCN(C)CC1` , thanks.
**Result** 108

----------
# experimental.protocol: Oral bioavailability in Sprague-Dawley rat at 10 mg/kg
# Assay type: ADME, organism-based
# assay.setup: in vivo
parameter: bioavailability (%)
Provide only the numeric value, understood in %.

**Query** Need bioavailability of `C=CC(=O)Nc1cc(Nc2ncc(Cl)c(Nc3ccccc3S(=O)(=O)C(C)C)n2)c(OC)cc1N1CCCN(C)CC1` , thanks.
**Result** 16.1

----------
# system.under.test: Epidermal growth factor receptor (Homo sapiens, UniProt P00533, T790M)
# Sequence (P00533 25-1210 T790M limits assumed): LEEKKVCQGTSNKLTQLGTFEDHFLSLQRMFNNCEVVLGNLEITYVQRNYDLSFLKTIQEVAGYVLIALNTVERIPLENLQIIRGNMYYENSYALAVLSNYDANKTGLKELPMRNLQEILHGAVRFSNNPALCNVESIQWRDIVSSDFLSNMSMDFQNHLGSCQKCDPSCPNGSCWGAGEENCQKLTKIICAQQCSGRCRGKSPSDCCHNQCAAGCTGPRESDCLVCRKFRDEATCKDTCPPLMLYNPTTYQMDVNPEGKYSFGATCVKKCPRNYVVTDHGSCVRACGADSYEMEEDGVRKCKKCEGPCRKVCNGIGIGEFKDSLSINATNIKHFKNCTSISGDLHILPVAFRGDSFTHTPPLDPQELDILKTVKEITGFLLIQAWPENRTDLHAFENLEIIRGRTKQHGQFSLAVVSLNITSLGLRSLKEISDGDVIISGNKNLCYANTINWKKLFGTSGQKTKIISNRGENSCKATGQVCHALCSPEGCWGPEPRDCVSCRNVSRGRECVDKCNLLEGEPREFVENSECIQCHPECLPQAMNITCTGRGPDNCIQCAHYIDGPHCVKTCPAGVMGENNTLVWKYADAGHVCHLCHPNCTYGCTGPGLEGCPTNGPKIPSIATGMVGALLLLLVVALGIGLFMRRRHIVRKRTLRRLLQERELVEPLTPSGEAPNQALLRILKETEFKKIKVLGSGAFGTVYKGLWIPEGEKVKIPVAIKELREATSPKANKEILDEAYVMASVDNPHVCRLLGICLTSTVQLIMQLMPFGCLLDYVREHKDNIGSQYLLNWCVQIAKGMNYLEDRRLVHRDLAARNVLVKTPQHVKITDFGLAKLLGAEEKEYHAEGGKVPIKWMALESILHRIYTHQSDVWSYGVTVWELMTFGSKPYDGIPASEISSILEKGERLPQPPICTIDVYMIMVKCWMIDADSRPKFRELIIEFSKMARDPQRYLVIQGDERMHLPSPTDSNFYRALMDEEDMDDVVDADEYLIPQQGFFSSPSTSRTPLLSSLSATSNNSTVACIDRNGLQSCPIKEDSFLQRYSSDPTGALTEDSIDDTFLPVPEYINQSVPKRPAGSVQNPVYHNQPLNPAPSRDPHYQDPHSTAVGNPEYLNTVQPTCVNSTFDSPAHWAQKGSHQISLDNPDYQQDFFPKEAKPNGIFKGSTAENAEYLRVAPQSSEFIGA
# experimental.protocol: Inhibition of recombinant human GST-tagged EGFR T790M mutant expressed in Baculovirus expression system using Tyr 4 peptide as substrate after 1 hr in presence of ATP by Z-LYTE assay
parameter: pIC50
Conceptually, pIC50 converts a concentration in mol/L into minus its log10.

**Query** Need pIC50 of `C=CC(=O)Nc1cc(Nc2ncc(Cl)c(Nc3ccccc3S(=O)(=O)C(C)C)n2)c(OC)cc1N1CCCN(C)CC1` , thanks.
**Result** 8.41

----------
# experimental.protocol: Half life in Sprague-Dawley rat at 10 mg/kg, po
# Format: ADME, organism-based
# assay.setup: in vivo
parameter: half-life (h)
Provide only the numeric value, understood in h.

**Query** Need half-life of `C=CC(=O)Nc1cc(Nc2ncc(Cl)c(Nc3ccccc3S(=O)(=O)C(C)C)n2)c(OC)cc1N1CCCN(C)CC1` , thanks.
**Result** 1.75

----------
# experimental.protocol: Antiproliferative activity against CHL cells after 72 hrs by CellTiter-Glo assay
# Assay type: cell-based, Cricetulus griseus
# assay.setup: chinese hamster
Listed below: GI50 at 72 h values for each entry.
Provide only the numeric value, understood in nM.

molecular_string=C=CC(=O)Nc1cc(Nc2ncc(Cl)c(Nc3ccccc3S(=O)(=O)C(C)C)n2)c(OC)cc1N1CCCN(C)CC1 parameter="GI50 at 72 h" experimental_value=3500

**Query** Need GI50 at 72 h of `C=CC(=O)Nc1cccc(Oc2nc(Nc3ccc(N4CCN(C)CC4)cc3OC)ncc2Cl)c1` , thanks.
**Result** 4400

**Query** Need GI50 at 72 h of `C[C@@H](Oc1cc(-c2cnn(C3CCNCC3)c2)cnc1N)c1c(Cl)ccc(F)c1Cl` , thanks.
**Result** 450

**Query** Need GI50 at 72 h of `CCC(=O)Nc1cc(Nc2ncc(Cl)c(Nc3ccccc3S(=O)(=O)C(C)C)n2)c(OC)cc1N1CCCN(C)CC1` , thanks.
**Result** 1300

----------
# system.under.test: Epidermal growth factor receptor (Homo sapiens, UniProt P00533, L858R)
# experimental.protocol: Inhibition of recombinant human GST-tagged EGFR L858R mutant expressed in Baculovirus expression system using Tyr 4 peptide as substrate after 1 hr in presence of ATP by Z-LYTE assay
parameter: IC50 (µM)
Provide only the numeric value, understood in µM.

**Query** Need IC50 of `C=CC(=O)Nc1cc(Nc2ncc(Cl)c(Nc3ccccc3S(=O)(=O)C(C)C)n2)c(OC)cc1N1CCCN(C)CC1` , thanks.
**Result** 0.0825

----------
# experimental.protocol: AUC (0 to t) in Sprague-Dawley rat at 1 mg/kg, iv
# Format: ADME, organism-based
# assay.setup: in vivo
parameter: AUC(0-t) (ng·h/mL)
Provide only the numeric value, understood in ng·h/mL.

**Query** Need AUC(0-t) of `C=CC(=O)Nc1cc(Nc2ncc(Cl)c(Nc3ccccc3S(=O)(=O)C(C)C)n2)c(OC)cc1N1CCCN(C)CC1` , thanks.
**Result** 707

----------
# experimental.protocol: AUC (0 to infinity) in Sprague-Dawley rat at 10 mg/kg, po
# Type: ADME, organism-based
# Set-up: dose 10 mg/kg, route oral, time infinity
# assay.setup: in vivo
parameter: AUC(0-inf) (ng·h/mL)
Provide only the numeric value, understood in ng·h/mL.

**Query** Need AUC(0-inf) of `C=CC(=O)Nc1cc(Nc2ncc(Cl)c(Nc3ccccc3S(=O)(=O)C(C)C)n2)c(OC)cc1N1CCCN(C)CC1` , thanks.
**Result** 1300

----------
# experimental.protocol: MRT (0 to t) in Sprague-Dawley rat at 10 mg/kg, po
# Format: ADME, organism-based
# assay.setup: in vivo
parameter: MRT last (h)
Provide only the numeric value, understood in h.

**Query** Need MRT last of `C=CC(=O)Nc1cc(Nc2ncc(Cl)c(Nc3ccccc3S(=O)(=O)C(C)C)n2)c(OC)cc1N1CCCN(C)CC1` , thanks.
**Result** 4.12

----------
# system.under.test: Epidermal growth factor receptor (Homo sapiens, UniProt P00533, L858R/T790M)
# experimental.protocol: Inhibition of recombinant human GST-tagged EGFR L858R/T790M mutant expressed in Baculovirus expression system using Tyr 4 peptide as substrate after 1 hr in presence of ATP by Z-LYTE assay
parameter: pIC50
Conceptually, pIC50 converts a concentration in mol/L into minus its log10.

**Query** Quick check: pIC50 on Epidermal growth factor receptor (Homo sapiens, UniProt P00533, L858R/T790M), item `C=CC(=O)Nc1cc(Nc2ncc(Cl)c(Nc3ccccc3S(=O)(=O)C(C)C)n2)c(OC)cc1N1CCCN(C)CC1` ?
**Result** 8.44

----------
Listed below: GI50 values for each entry.
# Tested on: Epidermal growth factor receptor (Homo sapiens), P00533 [T790M]
# Sequence (P00533 whole entry T790M, the tested form may be a part): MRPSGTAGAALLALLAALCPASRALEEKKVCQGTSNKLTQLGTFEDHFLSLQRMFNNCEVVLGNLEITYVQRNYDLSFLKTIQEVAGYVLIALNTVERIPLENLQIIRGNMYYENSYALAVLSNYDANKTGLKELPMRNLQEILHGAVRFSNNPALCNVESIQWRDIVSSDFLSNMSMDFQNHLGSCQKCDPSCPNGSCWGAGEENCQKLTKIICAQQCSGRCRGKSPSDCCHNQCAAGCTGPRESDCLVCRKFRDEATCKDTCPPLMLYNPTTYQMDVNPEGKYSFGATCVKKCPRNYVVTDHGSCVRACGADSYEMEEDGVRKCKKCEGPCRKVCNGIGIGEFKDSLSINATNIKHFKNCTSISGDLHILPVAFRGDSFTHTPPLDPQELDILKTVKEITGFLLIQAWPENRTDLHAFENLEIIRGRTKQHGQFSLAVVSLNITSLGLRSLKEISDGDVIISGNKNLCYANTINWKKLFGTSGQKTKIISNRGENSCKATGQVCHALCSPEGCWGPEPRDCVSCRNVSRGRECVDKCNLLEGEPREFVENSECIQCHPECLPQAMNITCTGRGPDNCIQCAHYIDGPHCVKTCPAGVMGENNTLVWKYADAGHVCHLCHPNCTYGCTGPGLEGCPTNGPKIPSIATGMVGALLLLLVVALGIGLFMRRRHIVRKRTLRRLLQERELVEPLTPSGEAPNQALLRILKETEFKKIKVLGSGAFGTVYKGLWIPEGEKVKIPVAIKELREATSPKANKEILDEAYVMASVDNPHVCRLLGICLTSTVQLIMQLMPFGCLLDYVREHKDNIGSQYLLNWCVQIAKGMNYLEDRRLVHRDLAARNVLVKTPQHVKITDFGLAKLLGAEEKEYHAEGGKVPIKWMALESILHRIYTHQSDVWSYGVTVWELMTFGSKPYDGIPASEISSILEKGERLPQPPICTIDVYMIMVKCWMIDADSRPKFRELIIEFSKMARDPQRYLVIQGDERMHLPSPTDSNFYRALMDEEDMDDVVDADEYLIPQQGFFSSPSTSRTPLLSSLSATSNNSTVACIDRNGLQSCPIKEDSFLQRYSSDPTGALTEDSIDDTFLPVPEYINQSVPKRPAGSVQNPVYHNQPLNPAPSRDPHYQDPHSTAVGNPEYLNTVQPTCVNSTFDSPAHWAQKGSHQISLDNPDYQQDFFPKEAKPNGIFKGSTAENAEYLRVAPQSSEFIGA
# experimental.protocol: Inhibition of TEL-fused EGFR T790M mutant (unknown origin) expressed in mouse BAF3 cells assessed as decrease in cell proliferation after 72 hrs by CellTiter-Glo assay
# Assay type: cell-based
Report the figure along with its unit, number first.

molecular_string=C=CC(=O)Nc1cc(Nc2ncc(Cl)c(Nc3ccccc3S(=O)(=O)C(C)C)n2)c(OC)cc1N1CCCN(C)CC1 system_under_test="Epidermal growth factor receptor (Homo sapiens), P00533 [T790M]" experimental_value="8 nM"

**Query** Need GI50 of `CCC(=O)Nc1cc(Nc2ncc(Cl)c(Nc3ccccc3S(=O)(=O)C(C)C)n2)c(OC)cc1N1CCCN(C)CC1` , thanks.
**Result** 800 nM

**Query** Need GI50 of `C=CC(=O)Nc1cccc(Oc2nc(Nc3ccc(N4CCN(C)CC4)cc3OC)ncc2Cl)c1` , thanks.
**Result** 2.1 nM

**Query** Need GI50 of `COc1cc(N2CCC(N3CCN(C)CC3)CC2)ccc1Nc1ncc(Cl)c(Nc2ccccc2S(=O)(=O)C(C)C)n1` , thanks.
**Result** 420 nM

----------
# experimental.protocol: Tmax in Sprague-Dawley rat at 10 mg/kg, po
# Format: ADME, organism-based
# assay.setup: in vivo
parameter: Tmax (h)
Provide only the numeric value, understood in h.

**Query** Need Tmax of `C=CC(=O)Nc1cc(Nc2ncc(Cl)c(Nc3ccccc3S(=O)(=O)C(C)C)n2)c(OC)cc1N1CCCN(C)CC1` , thanks.
**Result** 4

----------
# system.under.test: UniProt Q9UM73
# experimental.protocol: Inhibition of recombinant human wild-type GST-tagged ALK expressed in Baculovirus expression system using Tyr 1 peptide as substrate after 1 hr by Z-LYTE assay
parameter: pIC50
Conceptually, pIC50 converts a concentration in mol/L into minus its log10.

**Query** Need pIC50 of `C=CC(=O)Nc1cc(Nc2ncc(Cl)c(Nc3ccccc3S(=O)(=O)C(C)C)n2)c(OC)cc1N1CCCN(C)CC1` , thanks.
**Result** 8.01

----------
# experimental.protocol: MRT (0 to t) in Sprague-Dawley rat at 1 mg/kg, iv
# Assay type: ADME, organism-based
# assay.setup: in vivo
parameter: MRT last (min)
Provide only the numeric value, understood in min.

**Query** Need MRT last of `C=CC(=O)Nc1cc(Nc2ncc(Cl)c(Nc3ccccc3S(=O)(=O)C(C)C)n2)c(OC)cc1N1CCCN(C)CC1` , thanks.
**Result** 56.8

----------
# experimental.protocol: AUC (0 to infinity) in Sprague-Dawley rat at 1 mg/kg, iv
# Format: ADME, organism-based
# Design: dose 1 mg/kg, route intravenous, time infinity
# assay.setup: in vivo
parameter: AUC(0-inf) (ng·h/mL)
Provide only the numeric value, understood in ng·h/mL.

**Query** Need AUC(0-inf) of `C=CC(=O)Nc1cc(Nc2ncc(Cl)c(Nc3ccccc3S(=O)(=O)C(C)C)n2)c(OC)cc1N1CCCN(C)CC1` , thanks.
**Result** 720

----------
# system.under.test: ALK tyrosine kinase receptor (Homo sapiens, UniProt Q9UM73, R1275Q)
# Sequence (Q9UM73 19-1620 R1275Q limits assumed): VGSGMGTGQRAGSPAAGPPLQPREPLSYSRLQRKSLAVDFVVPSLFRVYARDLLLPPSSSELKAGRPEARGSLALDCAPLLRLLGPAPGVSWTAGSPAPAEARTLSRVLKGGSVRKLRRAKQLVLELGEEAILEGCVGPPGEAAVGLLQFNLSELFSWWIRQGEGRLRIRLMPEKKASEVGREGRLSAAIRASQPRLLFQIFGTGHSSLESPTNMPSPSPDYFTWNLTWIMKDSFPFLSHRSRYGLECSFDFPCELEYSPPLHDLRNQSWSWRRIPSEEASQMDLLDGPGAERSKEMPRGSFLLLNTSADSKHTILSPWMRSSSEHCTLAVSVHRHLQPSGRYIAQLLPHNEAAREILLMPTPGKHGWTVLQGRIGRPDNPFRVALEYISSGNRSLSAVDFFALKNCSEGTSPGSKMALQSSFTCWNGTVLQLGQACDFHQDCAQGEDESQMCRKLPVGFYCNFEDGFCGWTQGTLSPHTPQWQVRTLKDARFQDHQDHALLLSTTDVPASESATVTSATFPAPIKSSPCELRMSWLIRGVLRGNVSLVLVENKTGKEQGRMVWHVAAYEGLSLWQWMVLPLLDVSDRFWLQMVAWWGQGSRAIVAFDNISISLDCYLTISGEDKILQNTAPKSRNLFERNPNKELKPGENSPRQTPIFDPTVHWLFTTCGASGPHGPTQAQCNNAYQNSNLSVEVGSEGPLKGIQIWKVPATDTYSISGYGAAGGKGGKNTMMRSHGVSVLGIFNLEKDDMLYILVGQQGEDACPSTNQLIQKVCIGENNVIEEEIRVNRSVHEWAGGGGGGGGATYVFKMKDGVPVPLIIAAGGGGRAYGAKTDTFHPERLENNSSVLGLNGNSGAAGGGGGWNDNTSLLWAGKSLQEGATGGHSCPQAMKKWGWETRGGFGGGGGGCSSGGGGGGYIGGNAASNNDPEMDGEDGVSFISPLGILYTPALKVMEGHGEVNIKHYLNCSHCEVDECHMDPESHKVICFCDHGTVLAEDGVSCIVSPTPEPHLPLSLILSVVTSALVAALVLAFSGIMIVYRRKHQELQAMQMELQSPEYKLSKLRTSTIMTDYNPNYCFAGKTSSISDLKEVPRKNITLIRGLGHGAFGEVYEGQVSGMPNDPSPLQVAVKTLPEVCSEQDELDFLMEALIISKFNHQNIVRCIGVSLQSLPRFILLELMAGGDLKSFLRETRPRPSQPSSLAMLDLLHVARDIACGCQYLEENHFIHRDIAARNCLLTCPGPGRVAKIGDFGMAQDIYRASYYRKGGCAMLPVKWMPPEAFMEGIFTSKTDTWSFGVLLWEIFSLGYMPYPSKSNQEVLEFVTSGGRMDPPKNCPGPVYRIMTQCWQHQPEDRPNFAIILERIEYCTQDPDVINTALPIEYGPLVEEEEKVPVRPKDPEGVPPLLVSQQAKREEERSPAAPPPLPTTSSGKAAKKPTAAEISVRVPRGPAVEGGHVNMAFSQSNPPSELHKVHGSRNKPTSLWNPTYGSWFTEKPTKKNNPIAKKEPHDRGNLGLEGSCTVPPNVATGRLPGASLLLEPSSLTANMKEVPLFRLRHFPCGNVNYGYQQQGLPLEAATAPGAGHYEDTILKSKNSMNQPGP
# experimental.protocol: Inhibition of recombinant human N-terminal GST/His6-fused ALK R1275Q mutant expressed in Sf9 insect cells using Tyr 1 peptide as substrate after 1 hr by Z-LYTE assay
parameter: pIC50
Conceptually, pIC50 converts a concentration in mol/L into minus its log10.

**Query** Need pIC50 of `C=CC(=O)Nc1cc(Nc2ncc(Cl)c(Nc3ccccc3S(=O)(=O)C(C)C)n2)c(OC)cc1N1CCCN(C)CC1` , thanks.
**Result** 9.09
